molecular target: UniProt Q9NQS5; experiment: cell-based; assay type: cell-based; conditions: EC50 ± SEM, cAMP assay, CHO cells expressing human GPR84; forskolin 10 μM
Sequence (Q9NQS5 whole entry): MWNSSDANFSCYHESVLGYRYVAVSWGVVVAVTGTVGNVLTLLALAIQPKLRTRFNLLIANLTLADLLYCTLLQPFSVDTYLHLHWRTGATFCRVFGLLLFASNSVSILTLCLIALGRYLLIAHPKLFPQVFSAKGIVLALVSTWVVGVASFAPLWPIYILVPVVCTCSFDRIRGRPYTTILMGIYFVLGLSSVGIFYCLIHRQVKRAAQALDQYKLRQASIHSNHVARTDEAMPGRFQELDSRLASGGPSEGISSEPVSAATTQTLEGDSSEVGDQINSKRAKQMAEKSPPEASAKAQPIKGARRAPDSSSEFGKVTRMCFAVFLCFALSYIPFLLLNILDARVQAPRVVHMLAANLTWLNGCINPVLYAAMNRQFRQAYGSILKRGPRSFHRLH
pEC50: −log10 of the molar value.
Recorded measurements of pEC50, one per entry
metric.name: pEC50

molecule | tested.target | endpoint.value
O=c1cc(NCCc2cccc(Br)c2)[nH]c(=O)[nH]1 [Compound 55] | UniProt Q9NQS5 | 7.19
COc1ccc(CCNc2cc(=O)[nH]c(=O)[nH]2)cc1 [Compound 50] | UniProt Q9NQS5 | 7.24
CCCCCCN(C)c1cc(=O)[nH]c(=O)[nH]1 [Compound 37] | UniProt Q9NQS5 | 6.96
O=c1cc(NCCCc2ccccc2)[nH]c(=O)[nH]1 [Compound 43] | UniProt Q9NQS5 | 5.77
Cc1ccccc1CCNc1cc(=O)[nH]c(=O)[nH]1 [Compound 56] | UniProt Q9NQS5 | 5.49
